- Protocol Notes: physchem
Property Name: solubility

// query Recorded solubility for CC[C@@]1(O)C(=O)OCc2c1cc1n(c2=O)Cc2cc3c(ccc4oc(C(C)C)nc43)nc2-1 [Compound 4] , please?
// result < 2 µg/mL

Entry source: paper PMC6668024
